# tested-system: T1, cSNK:BSA conjugate (bovine, head-to-tail cyclized; conjugated to BSA carrier)
# T1 construct: also called BSA-cSNK
# T1 sequence (P02769 25-607 limits assumed): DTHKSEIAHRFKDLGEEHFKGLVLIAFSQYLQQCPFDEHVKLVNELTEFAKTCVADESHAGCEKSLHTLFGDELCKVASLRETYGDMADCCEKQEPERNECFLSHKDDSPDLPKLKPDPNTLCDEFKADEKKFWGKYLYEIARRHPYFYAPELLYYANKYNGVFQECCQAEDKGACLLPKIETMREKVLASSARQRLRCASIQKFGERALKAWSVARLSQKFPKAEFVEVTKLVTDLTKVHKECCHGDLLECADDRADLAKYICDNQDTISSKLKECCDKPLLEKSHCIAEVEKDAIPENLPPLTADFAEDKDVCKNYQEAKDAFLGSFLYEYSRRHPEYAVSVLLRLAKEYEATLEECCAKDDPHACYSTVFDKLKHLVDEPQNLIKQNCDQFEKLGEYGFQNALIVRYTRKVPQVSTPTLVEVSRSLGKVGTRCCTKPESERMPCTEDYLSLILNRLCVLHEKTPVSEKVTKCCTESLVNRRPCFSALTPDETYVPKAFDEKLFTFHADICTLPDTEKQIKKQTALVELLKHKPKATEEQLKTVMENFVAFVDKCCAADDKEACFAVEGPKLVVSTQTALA
# test-name: BLI 2:1 fit, site 1; 6.25 nM row
# Lookup of reported kon keyed by entry
The answer is to be given in M⁻¹ s⁻¹; state only the numeric part.

IN: Return reported kon. Input binder: hu5E3-IgG4 (antibody, V domains shown, human IgG4/kappa; also called humanized 5E3 IgG4) VH: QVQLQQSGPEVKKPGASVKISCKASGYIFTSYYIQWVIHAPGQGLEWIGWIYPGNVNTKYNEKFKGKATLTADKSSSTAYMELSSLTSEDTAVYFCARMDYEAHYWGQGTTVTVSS VL: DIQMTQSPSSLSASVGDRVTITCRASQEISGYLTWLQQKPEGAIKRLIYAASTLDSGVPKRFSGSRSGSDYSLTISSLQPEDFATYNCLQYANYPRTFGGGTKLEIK
OUT: 868000

IN: Return reported kon. Input binder: hu5E3-IgG1 (antibody, V domains shown, human IgG1/kappa; also called humanized 5E3 IgG1; IHA variant) VH: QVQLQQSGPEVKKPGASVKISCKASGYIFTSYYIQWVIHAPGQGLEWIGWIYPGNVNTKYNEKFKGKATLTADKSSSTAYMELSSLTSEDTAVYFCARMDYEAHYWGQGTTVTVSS VL: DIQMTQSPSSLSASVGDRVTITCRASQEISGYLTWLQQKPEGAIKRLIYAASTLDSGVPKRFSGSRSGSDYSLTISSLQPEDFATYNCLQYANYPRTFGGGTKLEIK
OUT: 1.78e+06

Continue with the next binder.
IN: Return reported kon. Input binder: hu5E3-IgG2 (antibody, V domains shown, human IgG2/kappa; also called humanized 5E3 IgG2) VH: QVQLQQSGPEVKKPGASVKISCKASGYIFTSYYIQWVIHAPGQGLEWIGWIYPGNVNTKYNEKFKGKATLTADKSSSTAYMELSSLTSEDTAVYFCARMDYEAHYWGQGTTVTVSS VL: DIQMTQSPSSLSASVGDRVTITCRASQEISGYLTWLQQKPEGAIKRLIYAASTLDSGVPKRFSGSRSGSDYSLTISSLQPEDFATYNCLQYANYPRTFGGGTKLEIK
OUT: 644000

Measured values drawn from patent US20170008955A1 for this set.
